Source: paper PMC6337671

Experiment: Pharmacokinetic study in rats after a single intravenous administration of concentrated Kudiezi injection (HPLC-MS/MS of plasma)
Type: in vivo, Sprague-Dawley rats
Settings: male, Sprague-Dawley, rat, plasma, iv, 3.6 mL/kg, single i.v. 3.6 mL/kg of 15 times concentrated KI, mean ± SD, n = 5
PROPERTY NAME: AUC(0-inf) (ng·h/mL)

Below, 3 compounds whose answers are already recorded.
O=c1cc(-c2ccc(O)c(O)c2)oc2cc(O[C@@H]3O[C@H](CO[C@@H]4O[C@H](CO)[C@@H](O)[C@H](O)[C@H]4O)[C@@H](O)[C@H](O)[C@H]3O)cc(O)c12 [Compound VI, luteolin-7-O-β-D-gentiobioside]
173
O=C(/C=C/c1ccc(O)c(O)c1)O[C@H]1[C@H](O)C[C@](O)(C(=O)O)C[C@H]1O
209
O=C(/C=C/c1ccc(O)c(O)c1)O[C@@H]1C[C@](O)(C(=O)O)C[C@@H](O)[C@H]1O
209

A = O=C(O)[C@H]1O[C@@H](Oc2cc(O)c3c(=O)cc(-c4ccc(O)c(O)c4)oc3c2)[C@H](O)[C@@H](O)[C@@H]1O [VII, luteolin-7-O-β-D-glucuronide]
B = O=C(O)[C@H]1O[C@@H](Oc2cc(O)c3c(=O)cc(-c4ccc(O)cc4)oc3c2)[C@H](O)[C@@H](O)[C@@H]1O [IX, apigenin-7-O-β-D-glucuronide]
C = O=c1cc(-c2ccc(O)c(O)c2)oc2cc(O[C@@H]3O[C@H](CO)[C@@H](O)[C@H](O)[C@H]3O)cc(O)c12 [VIII, luteolin-7-O-β-D-glucoside]
Qu. List the 3 entries from lowest AUC(0-inf) to highest AUC(0-inf) value. Reply: labels, ordered per the request.
Ans. C, B, A
(C: 31 ng·h/mL, B: 56.1 ng·h/mL, A: 680 ng·h/mL)

a = O=C(O)/C=C/c1ccc(O)c(O)c1
b = O=C(/C=C/c1ccc(O)c(O)c1)O[C@@H](C(=O)O)[C@@H](O)C(=O)O
Qu. Min AUC(0-inf)? a | b Indicate which entry you chose by stating its label.
Ans. a
(a: 237 ng·h/mL, b: 3080 ng·h/mL)

====

Test: Stability of the nine components in rat plasma QC samples (auto-sampler, freeze-thaw, long-term)
Type: physicochemical
Settings: rat plasma, HQC spiked 2000 ng/mL (4000 ng/mL for II), n = 5
Method: The stability of the nine components in rat plasma was investigated under a variety of storage and process conditions. […] Stability of the nine components were assessed under the condition of placing extracted plasma samples in auto-sampler for 6 h, as well as placing plasma samples within freeze-thaw three cycles and at −80 °C for 14 days. LQC, MQC and HQC samples with five replicates at each level were kept at the above conditions and analyzed against freshly prepared calibrators as the reference.
PROPERTY NAME: Long-Term Stability (−80 °C, 14 Days), RE (%)

A = O=C(/C=C/c1ccc(O)c(O)c1)O[C@@H]1C[C@](O)(C(=O)O)C[C@@H](O)[C@H]1O [I, 5-caffeoylquinic acid]
B = O=C(/C=C/c1ccc(O)c(O)c1)O[C@H]1[C@H](O)C[C@](O)(C(=O)O)C[C@H]1O
C = O=c1cc(-c2ccc(O)c(O)c2)oc2cc(O[C@@H]3O[C@H](CO)[C@@H](O)[C@H](O)[C@H]3O)cc(O)c12 [VIII, luteolin-7-O-β-D-glucoside]
Qu. Put the entries in order of Long-Term Stability (−80 °C, 14 Days), RE, starting with the largest number. Rank them, then answer with their labels in that order.
Ans. C, B, A
